Assay: clinical
Design: species or system human
Settings: human, in vivo, 300 ug
Quantity kind: Tmax
Quick note: unit goes after the number.

### Prompt Determine its reported Tmax: `COc1cc(CNC(=O)CCCC/C=C/C(C)C)ccc1O`
### Response 30 min

---

Experiment: clinical
Design: species or system human
Conditions: human, in vivo, 300 ug, terminal exponential half life, per subject
Quantity kind: half-life
Quick note: unit goes after the number.

### Prompt Determine its reported half-life: COc1cc(CNC(=O)CCCC/C=C/C(C)C)ccc1O [purified capsaicin]
### Response 19.6 min
